pIC50: −log10 of the molar value.
Recorded pIC50 for compounds tested on BTK (Homo sapiens), drawn from a number of studies.

compound: Cc1cc(-c2ccnc(Nc3cnn(C)c3)n2)ccc1CNC(=O)c1cccn1C
reported_result: 6.00 to 7.00
//
compound: C=CC(=O)N1CCC[C@@H](n2nc(-c3ccc(Oc4ccccc4)cc3)c3c(N)n[nH]c(=O)c32)C1
reported_result: 6.00 to 8.00
//
compound: Cc1ccc2c(N)c(C(N)=O)nnc2c1-c1cnc2c(c1)ncn2C
reported_result: 5.30
//
compound: COc1ccc(-c2cc3[nH]ncc3cc2C)c2nnc(C(N)=O)c(N)c12
reported_result: 8.10
//
compound: COc1cccc(Oc2ccc(-c3nc([C@@H]4CCC[C@@H](O)C4)n4ccnc(N)c34)cc2)c1F
reported_result: ≥ 8.00

Item: O=C(CNc1ccc(F)c(I)c1)N[C@@H]1CCCN(c2ncnc3[nH]ccc23)C1 | System: BTK (Homo sapiens) | pIC50: 6.00 to 7.00

# value of pIC50, BTK (Homo sapiens), item C=CC(=O)N1CC[C@]2(C1)C[C@@H](n1c(NC(=O)c3ccc(-c4cnco4)s3)nc3cc(F)ccc31)C2 = 7.38

Observed pIC50, BTK (Homo sapiens), N#Cc1ccccc1NCC(=O)NC1CCCN(c2ncnc3[nH]ccc23)C1 (stereo not shown) : 5.00 to 6.00

---

This section presents IC50 values reported for BTK (Homo sapiens, UniProt Q06187) in the literature.

# annotated cases, reported IC50 shown
molecule: C=CC(=O)N1CCC[C@@H](n2nc(-c3ccc(C(=O)Nc4ccccc4)cc3)c3c(N)ncc(-c4cc[nH]n4)c32)C1
reported_result: 3.1 nM
//
molecule: Cn1cc(-c2cn3nccc3c(-c3ccc4c(c3)CN(CC(F)(F)F)CC[C@H]4NC(=O)c3cn(C(C)(C)C)nn3)n2)cn1
reported_result: 1 to 10 nM

For the molecule C=CC(=O)N1CC[C@@H](n2c(C)c(-c3ccc(Cl)cc3)c3c(N)ncnc32)C1 , the measured IC50 on BTK (Homo sapiens, UniProt Q06187) was < 100 nM

Tested on BTK (Homo sapiens, UniProt Q06187), the item C=CC(=O)N1CCC(c2cc(C(N)=O)nn2-c2ccc(Oc3ccccc3)cc2)CC1 showed IC50 equal to ≥ 1000 nM

Lab note: molecule CC(C)OC1CN(C(=O)NCc2ccc(-c3ccnc(Nc4cnn(C(C)C)c4)n3)cc2C(F)(F)F)C1 tested on BTK (Homo sapiens, UniProt Q06187); recorded IC50 was < 10 nM

Bench note, BTK (Homo sapiens, UniProt Q06187): CCc1cc(-c2ncnc3[nH]ccc23)ccc1CNC(=O)c1ccc(C(C)(C)C)cn1 , IC50 reads < 10 nM

# lookup: CC#CC(=O)N1CCC(c2nc(-c3ccc(Oc4ncccc4C#N)cc3)n3c(N)nccc23)C1 (stereo not shown) on BTK (Homo sapiens, UniProt Q06187), IC50 = < 100 nM

---

Literature-derived IC50 for BTK (Homo sapiens, UniProt Q06187) follows.

Examples from the recorded data:
compound: Cc1cc(-c2ncnc3cc[nH]c23)ccc1CNC(=O)c1cnc(C(C)(C)C)s1
target_entity: BTK (Homo sapiens, UniProt Q06187)
Sequence (Q06187 whole entry): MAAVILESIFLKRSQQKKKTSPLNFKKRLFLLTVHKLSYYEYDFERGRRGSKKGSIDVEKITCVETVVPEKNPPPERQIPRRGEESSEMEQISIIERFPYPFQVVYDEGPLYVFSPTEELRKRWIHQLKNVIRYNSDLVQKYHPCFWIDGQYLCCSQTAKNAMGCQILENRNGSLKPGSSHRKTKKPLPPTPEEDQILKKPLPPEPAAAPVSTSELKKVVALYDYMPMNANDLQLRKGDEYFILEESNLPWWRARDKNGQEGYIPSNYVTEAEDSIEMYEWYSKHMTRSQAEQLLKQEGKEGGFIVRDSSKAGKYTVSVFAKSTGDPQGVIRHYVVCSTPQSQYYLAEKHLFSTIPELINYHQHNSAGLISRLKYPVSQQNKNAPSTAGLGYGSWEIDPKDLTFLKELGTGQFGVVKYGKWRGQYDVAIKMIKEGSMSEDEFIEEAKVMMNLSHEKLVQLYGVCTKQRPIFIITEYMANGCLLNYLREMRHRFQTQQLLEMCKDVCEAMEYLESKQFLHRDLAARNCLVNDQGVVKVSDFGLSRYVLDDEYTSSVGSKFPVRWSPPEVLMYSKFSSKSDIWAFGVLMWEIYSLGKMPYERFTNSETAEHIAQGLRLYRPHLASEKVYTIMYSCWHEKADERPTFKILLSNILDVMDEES
IC50: < 0.01 µM
--
compound: COc1cc(-c2cn(C3CCCN(C(=O)/C=C/CN(C)C)C3)c3c(=O)[nH]nc(N)c23)ccc1Oc1cccc(Cl)c1 (stereo not shown)
target_entity: BTK (Homo sapiens, UniProt Q06187)
IC50: ≤ 0.01 µM
--
compound: Cc1cc(-c2cc(Nc3cc4n(n3)CCN(CCO)C4)ncn2)ccc1CNC(=O)c1cnc(C(C)(C)C)s1
target_entity: BTK (Homo sapiens, UniProt Q06187)
IC50: < 0.01 µM

The recorded IC50 for entry C[C@@H](O)[C@@H](Nc1cc(F)cc(Cl)c1)C(=O)N[C@@H]1CCCN(c2ncnc3[nH]ccc23)C1 equals 1 to 10 µM

---

pIC50: −log10 of the molar value.
Literature-derived pIC50 for BTK (Homo sapiens, UniProt Q06187) follows.

Take a look at these entries with their results.
compound: CC(C)(C)c1ccc(C(=O)NCc2ccc(-c3ncnc4[nH]ccc34)cn2)nc1
parameter_measured: pIC50
reported_result: 6.00 to 7.00

compound: C=CC(=O)N[C@H]1CC[C@@H](Nc2nc(Nc3cnn(CCOC)c3)nc3ccsc23)CC1
parameter_measured: pIC50
reported_result: ≥ 7.30

compound: Cn1cc(-c2cn3nccc3c(-c3ccc(CNC(=O)c4cnn(C(C)(C)C)n4)cc3)n2)cn1
parameter_measured: pIC50
reported_result: > 9.00

Reported BTK (Homo sapiens, UniProt Q06187) pIC50 for item C=CC(=O)Nc1cccc(Oc2c(F)cnc3[nH]c(-c4ccc(N5CCN(C)CC5)cc4)cc23)c1 was > 7.00

pIC50 of C=CC(=O)N1CCC(c2nc(-c3ccc(Oc4cc(OC)ccn4)cc3)n3c(N)nccc23)C1 (stereo not shown) , assay on BTK (Homo sapiens, UniProt Q06187), is > 7.00

COc1cc(-c2nn(C3Cc4ccccc4C3)c3ncnc(N)c23)ccc1O on BTK (Homo sapiens, UniProt Q06187) gives pIC50 = 6.81

Observed pIC50, BTK (Homo sapiens, UniProt Q06187), C=CC(=O)N1CCC[C@@H](n2nc(-c3ccc(C(=O)Nc4ccccn4)cc3F)c3c(N)ncc(Cl)c32)C1 : 8.92

Measured on BTK (Homo sapiens, UniProt Q06187), C=CC(=O)N1CC[C@]2(C1)C[C@H](n1c(NC(=O)c3cc(C)no3)nc3cc(CN4CCN(C)CC4)ccc31)C2 has a documented pIC50 of 7.75

Note to self: pIC50 of C=CC(=O)Nc1cccc(Oc2nc(Nc3ccc(S(=O)(=O)NC4CCN(C(C)C)CC4)cc3)nc3ccsc23)c1 with BTK (Homo sapiens, UniProt Q06187) was ≥ 7.30

# value of pIC50, BTK (Homo sapiens, UniProt Q06187), item C=CC(=O)N1CC[C@]2(C1)C[C@H](n1c(NC(=O)c3ccc(-c4ccncc4)s3)nc3ccccc31)C2 = 8.95

Summary: C=CC(=O)Nc1cccc(-c2cc(-c3ccc(Oc4ncccc4Cl)cc3F)cc3cncnc23)c1 , BTK (Homo sapiens, UniProt Q06187), pIC50 = > 7.00

The value of pIC50 recorded for CN(C)CC#CC(=O)N1CC2(CC(n3nc(-c4ccc(Oc5ccccc5)cc4)c4cncnc43)C2)C1 when tested on BTK (Homo sapiens, UniProt Q06187) reads > 7.00

The observed pIC50 for C=CC(=O)N1CC2CCCC2C1c1nc(-c2ccc(C(=O)Nc3cc(C(F)(F)F)ccn3)cc2)c2c(N)nccn12 (stereo not shown) when tested with BTK (Homo sapiens, UniProt Q06187) stands at 8.28

Reported BTK (Homo sapiens, UniProt Q06187) pIC50 for item C=CC(=O)Nc1cccc(-c2cc3nccc(Oc4ccc5ncccc5c4)c3o2)c1 was 4.30 to 5.52

Note to self: pIC50 of C=CC(=O)Nc1ccc(Cl)c(-c2cc(CN3CCOCC3)cc(Nc3ncc(C)s3)n2)c1 with BTK (Homo sapiens, UniProt Q06187) was 7.74

Case C=CC(=O)Nc1cccc(Oc2nc(Nc3ccc(CN4CCN(C)CC4)cc3)nc3ccsc23)c1 , BTK (Homo sapiens, UniProt Q06187), pIC50 recorded as ≥ 7.30

---

Compiled IC50 measurements on BTK (Homo sapiens, UniProt Q06187) taken from the literature.

Example cases with answers are listed next.
compound: C=CC(=O)N1CCC[C@@H](n2nc(-c3ccc(-c4noc(CCCCl)n4)cc3)c3c(N)ncnc32)C1
IC50: 78 nM

compound: Cc1cc(-c2cc(Nc3cc4n(n3)CCCN(C)C4)ncn2)ccc1CNC(=O)c1cnc(C(C)(C)C)s1
IC50: < 10 nM

compound: CN1CCn2nc(Nc3cc(-c4ccc5c(c4)CCCC5NC(=O)c4cnc(C(C)(C)C)s4)ncn3)cc2C1 (stereo not shown)
IC50: < 10 nM

compound: CC#CC(=O)N1CCC=C(c2c(F)cc(C(N)=O)c3[nH]c(C)c(Cl)c23)C1
IC50: ≥ 100 nM

compound: C=CC(=O)N1CCC[C@@H](n2cc(-c3ccc(Oc4ccccc4F)cc3)c3c(N)n[nH]c(=O)c32)C1
IC50: ≤ 10 nM

Value sought: IC50, system BTK (Homo sapiens, UniProt Q06187), item Cc1cc(-c2ccnc(N)n2)ccc1CNC(=O)c1cnc(C2CC2)s1 . Result: 10 to 99 nM

IC50 on BTK (Homo sapiens, UniProt Q06187) for Cn1cc(-c2cn3nccc3c(N3CCC(C)(CNC(=O)c4cnc(C(C)(C)C)o4)C3)n2)cn1 (stereo not shown) is 1000 to 10000 nM

---

pIC50: −log10 of the molar value.
Collected pIC50 for BTK (Homo sapiens, UniProt Q06187) across several studies; compounds listed below.

// below: answered compounds
compound: C=CC(=O)Nc1cccc(-c2cc(-c3ccc(Oc4cccnc4)cc3)cc3cncnc23)c1
pIC50: > 7.00
--
compound: Cc1cc[nH]c(=O)c1-c1ccc2nc(Nc3cccc(N(C)C(=O)/C=C/CN(C)C)c3)ncc2c1
pIC50: > 7.00
--
compound: NC(=O)c1cnc2[nH]ccc2c1NC1CCCN(C(=O)CNc2cc(Cl)cc(Cl)c2)C1C(F)(F)F (stereo not shown)
pIC50: > 7.00

Record summary for Cc1cc(-c2cc(Nc3cc4n(n3)CCOC4)ncn2)ccc1CNC(=O)c1cnc(C(C)(C)C)s1 : reported pIC50 = > 8.00

Entry CC(C)(C)n1cc(C(=O)NCc2ccc(-c3nc(N4CCOCC4)cn4nccc34)cc2)cn1 — recorded pIC50 = 5.00 to 6.00

Noted for Cn1cc(-c2cn3nccc3c(N3CCC(C)(CNC(=O)c4nnn(C(C)(C)C)n4)CC3)n2)cn1 : its pIC50 reads 6.00 to 8.00

Briefly, pIC50 measured for C=CC(=O)N1CCC[C@@H](Nc2nc(Nc3cnn(C)c3)nc3ccoc23)C1 : ≥ 7.30

Form field pIC50, entry C=CC(=O)N[C@H]1CC[C@@H](Nc2nc(Nc3ccc(NC4CCN(C)CC4)cc3)nc3ccsc23)CC1 : ≥ 7.30

Record summary for C=CC(=O)N1CC[C@H](Nc2cncc(-c3cnc(Nc4cccc(Cl)c4)nc3)n2)C1 : reported pIC50 = 7.74

Record [2H]C([2H])([2H])N(C/C=C/C(=O)Nc1cccc(Nc2cc(Nc3ccc(F)c(Cl)c3)ncn2)c1)C([2H])([2H])[2H] , field pIC50: 7.00 to 8.00

Field pIC50 (entry Cn1cc(-c2cccc(-n3ncc4cc(C(C)(C)C)cc(F)c4c3=O)c2CO)nc1C(N)=O ) reads 7.74

Recorded result, C=CC(=O)N1CC2CC1C(n1nc(-c3ccc(Oc4cccc(C)c4)cc3)c3c(N)ncnc31)C2 (stereo not shown) , pIC50: 8.26

The compound C=CC(=O)N1CCc2ccc(-n3c(=O)ccc4cnc5ccc(-c6cn[nH]c6)cc5c43)cc21 showed pIC50 equal to 7.92

Looking up Cc1cc2cn[nH]c2cc1-c1cc(F)cc2c(N)c(C(N)=O)nnc12 , I see its pIC50 listed as 8.00

response.value for C=CC(=O)N1CC[C@@H](Nc2nc(Nc3cc(C)no3)nc3ccsc23)C1 (field: pIC50) = 6.00 to 7.00

For reference, reported pIC50 for C=CC(=O)Nc1cccc(-c2cc(CN3CCOCC3)cc(Nc3ncc(C(F)(F)F)s3)n2)c1 stands at 8.28
